- Test system: histamine-induced bronchospasm
- measurement_notes: inhibition of histamine-induced bronchospasm in anesthetized guinea pigs
- Assay type: in vivo, guinea pig
- condition_context: 20 μmol/kg i.v.; 20 min
observable: inhibition of histamine-induced bronchospasm, TVi

[[record]]
compound = "COc1cc(-c2ccc(=O)[nH]n2)ccc1OCC(C)C"
result = "46%"

[[record]]
compound = "Cn1c(=O)c2[nH]cnc2n(C)c1=O [Theophylline, theophylline, reference compound]"
result = "5%"

[[record]]
compound = "COc1ccc(-c2ccc(=O)[nH]n2)cc1OCC(C)C"
result = "104%"


Consider the record given below.
Record COc1ccc(-c2ccc(=O)[nH]n2)cc1OC(C)C . Reported inhibition of histamine-induced bronchospasm, TVi: 54%

* * *

- System: histamine-induced bronchospasm
- measurement_notes: inhibition of histamine-induced bronchospasm in anesthetized guinea pigs
- Format: in vivo, guinea pig
- condition_context: 20 μmol/kg i.v.; 10 min
observable: inhibition of histamine-induced bronchospasm, TVi (%)
Numbers only, in %.

Here are 3 compounds together with their reported answers.
[[record]]
compound = "COc1cc(-c2ccc(=O)[nH]n2)ccc1OCC(C)C [Serial No. 16]"
quantitative_readout = 66

[[record]]
compound = "COc1ccc(-c2ccc(=O)[nH]n2)cc1OCC(C)C [Serial No. 15]"
quantitative_readout = 107

[[record]]
compound = "COc1ccc(-c2ccc(=O)[nH]n2)cc1OC(C)C [Serial No. 11]"
quantitative_readout = 84


Consider the record given below.
Record Cn1c(=O)c2[nH]cnc2n(C)c1=O [Theophylline, theophylline, reference compound] . Reported inhibition of histamine-induced bronchospasm, TVi: 5

* * *

- System: chain of tracheal rings of guinea pigs
- measurement_notes: relaxing action on chain of tracheal rings in vitro (bronchospasmolytic action)
- Design: species or system guinea pig
- condition_context: Column D; trachea
Please provide measured [EC50] theophylline / [EC50] substance for the entries that follow.
One number for each entry.

Here are 5 compounds together with their reported answers.
[[record]]
compound = "C=CCOc1ccc(-c2ccc(=O)[nH]n2)cc1OC [Serial No. 5]"
observable = "[EC50] theophylline / [EC50] substance"
quantitative_readout = 85.2

[[record]]
compound = "COc1cc(-c2ccc(=O)[nH]n2)ccc1OCCC(C)C [Serial No. 6]"
observable = "[EC50] theophylline / [EC50] substance"
quantitative_readout = 190

[[record]]
compound = "COc1ccc(-c2ccc(=O)[nH]n2)cc1OCC(C)C [Serial No. 15]"
observable = "[EC50] theophylline / [EC50] substance"
quantitative_readout = 186

[[record]]
compound = "CCOc1ccc(-c2ccc(=O)[nH]n2)cc1OC [Serial No. 4]"
observable = "[EC50] theophylline / [EC50] substance"
quantitative_readout = 102

[[record]]
compound = "COc1ccc(-c2ccc(=S)[nH]n2)cc1OC(C)C [compound 17]"
observable = "[EC50] theophylline / [EC50] substance"
quantitative_readout = 18.6


// each listed compound needs a value for [EC50] theophylline / [EC50] substance
1. COc1cc(-c2ccc(=O)[nH]n2)ccc1OCC(C)C [Serial No. 16]
2. CCOc1cc(-c2ccc(=S)[nH]n2)ccc1OC [compound 14]

### Response
1: 468; 2: 95.5

// each listed compound needs a value for [EC50] theophylline / [EC50] substance
1. CCOc1cc(-c2ccc(=O)[nH]n2)ccc1OC [compound 8]
2. COc1ccc(-c2ccc(=O)[nH]n2)cc1OCCC(C)C [compound 12]
3. COc1ccc(-c2ccc(=S)[nH]n2)cc1OCC(C)C [compound 18]

### Response
[398, 269, 33.1]
